Hello, the source for this data is ChEMBL document CHEMBL1201862, in case you need it.

Tested on: A549
Test: NCI tumour cell line growth inhibition, 48 h
Activity calls are given as the source filed them. Rule as the data show it: active = GI50 up to about 1.1 µM and inactive = higher.
API: response.call in active, inactive

CCOC(=O)N1C(=O)C2C3C=CC(C2C1=O)C1C2C(=O)N(C(=O)OCC)C(=O)C2C31 (stereo not drawn)    inactive
O=C(c1ccc(/N=C/c2ccccc2O)cc1)c1ccc(/N=C/c2ccccc2O)cc1    inactive
CCOC1SC(SC)=NN1C(=O)C(OC(C)=O)C(OC(C)=O)C(OC(C)=O)C(OC(C)=O)C(=O)N1N=C(SC)SC1OCC (stereo not drawn)    inactive
C=CCCCCCCCCC(=O)ON(Cc1ccc(O)c(OC)c1)C(=O)C(F)(F)F    inactive

Q: Test call for this compound, please: OC(c1nc2ccccc2[nH]1)C(O)C(O)C(O)c1nc2ccccc2[nH]1 (stereo not drawn)
Result: inactive

Q: Test call for this compound, please: `N=C(N)NCCN1CC2CCC(CC2)C1`
Result: inactive

Q: Test call for this compound, please: `COc1ccc2c(c1)[n+]([O-])c(-c1ccc([N+](=O)[O-])cc1)c(N)[n+]2[O-]`
Result: inactive

Q: Test call for this compound, please: `CCCCOCCOC1=CC(=O)c2c(O)ccc(O)c2C1=O`
Result: inactive

Q: Test call for this compound, please: `Nc1c(Cl)ncnc1NCCCCCCCCCCCCNc1ncnc(Cl)c1N`
Result: inactive

Q: Test call for this compound, please: `O=C(c1ccccc1)N(C(=O)c1ccccc1)c1nc(SCc2ccccc2)ns1`
Result: inactive

Q: Test call for this compound, please: COc1cc(-c2[o+]c3cc(O)cc(OC4OC(CO)C(O)C(O)C4O)c3cc2OC2OC(CO)C(O)C(O)C2O)cc(OC)c1O (stereo not drawn)
Result: inactive
